test.method.notes: BET inhibitor-based combinations targeting novel dependencies in MECOM-rearranged (r) AML: AML-191 cell line (AID 2202236; further: nearly all actives have a fitted effect of over 35% in size)
details: AML-191 viability, CellTiter-Glo luminescence, 48 h; series mostly up to 46 µM
Inconclusive results are not listed. Activity calls are given as the source filed them. The call rests on the fitted dose curve; in most records, active means well fitted inhibition curve with a large enough effect; inconclusive means small, poorly fitted or top-dose-only effect; inactive means flat fitted curve, though single readings scatter.
In this exercise, the only acceptable responses are active, inactive

In this assay, the call recorded for `CO[C@H]1/C=C/O[C@@]2(C)Oc3c(C)c(O)c4c(O)c(c5c(nc6cc(C)ccn65)c4c3C2=O)NC(=O)/C(C)=C\C=C\[C@H](C)[C@H](O)[C@@H](C)[C@@H](O)[C@@H](C)[C@H](OC(C)=O)[C@@H]1C` was what? inactive

How did this test come out for `C[C@]12CCC3=C4CCC(=O)C=C4CC[C@H]3[C@@H]1CC[C@@]2(O)CC#N` ? inactive

Recorded test call requested for `C=CC(=O)N1CCc2ccc(-n3c(=O)ccc4cnc5ccc(-c6cnn(C)c6)cc5c43)cc21` active

// return assay outcome for `CN(C)C/C=C/C(=O)Nc1cc2c(Nc3ccc(F)c(Cl)c3)ncnc2cc1O[C@H]1CCOC1` active

Give the logged outcome of this assay for the following molecule: `CC1(C)S[C@H]2[C@H](NC(=O)[C@@H](N)c3ccc(O)cc3)C(=O)N2[C@H]1C(=O)O` inactive

Look up the recorded call for `Cc1cc(I)ccc1Nc1c(C(=O)NOCC2CC2)cc(F)c(F)c1F` in this test. active

Check the results log: what was the call for `CCO[C@@H]1OC(=O)C[C@@H]1NC(=O)[C@@H]1CCCN2C(=O)CC[C@H](NC(=O)c3nccc4ccccc34)C(=O)N12` ? inactive

Please state the recorded outcome for this molecule: COC(=O)Nc1nc2ccc(S(=O)c3ccccc3)cc2[nH]1 (stereo not drawn) active
